# SYSTEM_UNDER_TEST: T1, serum purified human Complement Factor D (human, UniProt P00746 26-253)
# T1 construct: Serum purified protein flowed over the captured antibodies; also called CFD; human CFD
# PROCEDURE_SUMMARY: SPR Biacore, antibody on protein A chip, single cycle kinetics, 25 C;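 also: antibodies captured to roughly 70 RU on the protein A surface in HBS-EP+ running buffer, with kinetic constants derived by BIAevaluation fitting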
MEASURE_NAME: koff (s⁻¹)
# value in s⁻¹; strip the unit string

Ask | Given the entry 28I31S54V59D / 101V (antibody, V domains shown, KCD119 TAF variant; full antibody captured on protein A) VH: EVQLVESGGGLVQPGGSLRLSCAASGYIFTSYYMNWVRQAPGKGLEWIGDINPVTGDTDYNADFKRRFTFSLDTSKSTAYLQMNSLRAEDTAVYYCTREGPSFAYWGQGTLVTVSS VL: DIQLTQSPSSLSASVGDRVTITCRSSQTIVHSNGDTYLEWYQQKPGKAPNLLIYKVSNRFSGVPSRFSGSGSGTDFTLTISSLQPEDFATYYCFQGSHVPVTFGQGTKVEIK , report its measured koff.
Reply | 0.000134
